B1: Pistol ribozyme (parent)
chain: GGGUCGUUGUUCCAUAAUCGCGUGGAUAUGGCACGCAAGUUUCUACCGGGCACCGUAAAUGUCCGACUGGAGCCGUUCGGGCGGCUAUAAACAGACCUCAGGCCCGAAGCGUGGCGGCACCUGCCGCCGGUGGUAAAAAAGAUCGGAAGAGCACACGUCU

- Variants of: B1
- EXPERIMENTAL_PROTOCOL: aptazyme ON/OFF ratio, guanine; higher = stronger switching; co-transcriptional cleavage with and without guanine
Entries and their aptazyme ON/OFF ratio values follow.
REPORTED_PROPERTY: aptazyme ON/OFF ratio

- MUTANT_CODE: "U8C G9U U10G U11C"
  MEAS_VALUE: 1.13
- MUTANT_CODE: "U8C G9C U11C C12G C13G"
  MEAS_VALUE: 1.26
- MUTANT_CODE: "U7A U8A G9U U10A U11A C12A C13U"
  MEAS_VALUE: 1.18
- MUTANT_CODE: "U7G U8G G9A U10C U11A C12U C13A"
  MEAS_VALUE: 1.06
- MUTANT_CODE: "U8A G9C U10A U11G C12A C13U"
  MEAS_VALUE: 1.14
- MUTANT_CODE: "U8G G9A U11A C12U C13G"
  MEAS_VALUE: 1.18
- MUTANT_CODE: "U7G U8C G9U U11G C12A C13A"
  MEAS_VALUE: 1.11
- MUTANT_CODE: "U7G U8G G9A U10A U11A C12A C13U"
  MEAS_VALUE: 1.38
- MUTANT_CODE: "U8C G9U U10A U11A C12G C13U"
  MEAS_VALUE: 1.21
- MUTANT_CODE: "U7C U8G U10G U11C C13U"
  MEAS_VALUE: 1.14
- MUTANT_CODE: "U7C G9C U10C C12G C13A"
  MEAS_VALUE: 1.09
- MUTANT_CODE: "U7G U8G G9U U10A U11A C12U C13U"
  MEAS_VALUE: 1.18
- MUTANT_CODE: "U7G U8C G9U U10C U11G C12A C13G"
  MEAS_VALUE: 1.21
- MUTANT_CODE: "U7G U8C G9C U10A U11C C12A C13U"
  MEAS_VALUE: 1.27
- MUTANT_CODE: "U8A G9U U11A C13U"
  MEAS_VALUE: 1.24
- MUTANT_CODE: "U7C U8A G9A U11G C12U C13A"
  MEAS_VALUE: 1.16
- MUTANT_CODE: "U8C G9U U10G U11G C12G C13G"
  MEAS_VALUE: 1.1
- MUTANT_CODE: "U7C U8A G9C U10A C12U C13A"
  MEAS_VALUE: 1.09
- MUTANT_CODE: "U7A U8C G9U U10G C13U"
  MEAS_VALUE: 1.24
- MUTANT_CODE: "U7C U8G G9A U10C C13G"
  MEAS_VALUE: 1.06
- MUTANT_CODE: "U7A U8G G9C U11G C12A C13G"
  MEAS_VALUE: 1.26
- MUTANT_CODE: "U8A G9U U10C U11G C12A"
  MEAS_VALUE: 1.05

All figures here come from the RNAGym collection of RNA variant scans (doi:10.1021/acssynbio.7b00057).
